The measurements presented in this section are drawn from patent US10379016B1.

System: S. aureus strain ATCC 29213
Assay: Antimicrobial susceptibility test by disc diffusion method (zone of inhibition)
Type: cell-based
Conditions: Mueller-Hinton agar plate spray-inoculated with apparatus, double actuation; microbial concentration 1 × 10^8 CFU/ml; 35-37° C., 18-20 h; NZI = No zone of inhibition
property.measured: Testing for zone of inhibition; Method of Inoculation: Apparatus, Double actuation (mm)

[[record]]
compound = "O=C(N[C@H](CO)[C@H](O)c1ccc([N+](=O)[O-])cc1)C(Cl)Cl [C, Chloramphenicol]"
measured_number = 22

[[record]]
compound = "CN(C)[C@@H]1C(O)=C(C(N)=O)C(=O)[C@@]2(O)C(O)=C3C(=O)c4c(O)cccc4[C@@](C)(O)[C@H]3C[C@@H]12 [TE, Tetracycline]"
measured_number = 24

[[record]]
compound = "NCC[C@H](O)C(=O)N[C@@H]1C[C@H](N)[C@@H](O[C@H]2O[C@H](CN)[C@@H](O)[C@H](O)[C@H]2O)[C@H](O)[C@H]1O[C@H]1O[C@H](CO)[C@@H](O)[C@H](N)[C@H]1O [AN, Amikacin]"
measured_number = 23

[[record]]
compound = "C[C@@H](O)[C@H]1C(=O)N2C(C(=O)O)=C(SCCN=CN)C[C@H]12 [IPM, Imipenem]"
measured_number = 38


----------
System: S. aureus strain ATCC 29213
Assay: Antimicrobial susceptibility test by disc diffusion method (zone of inhibition)
Type: cell-based
Settings: Mueller-Hinton agar plate spray-inoculated with apparatus, single actuation; microbial concentration 1 × 10^8 CFU/ml; 35-37° C., 18-20 h; NZI = No zone of inhibition
Protocol: In an experiment, Mueller-Hinton Agar plates were prepared. Forty grams of Mueller-Hinton Agar (MHA) was suspended in 1 liter distilled water and then boiled to dissolve the powder completely. […] The suspension density was measured by using an UV spectrophotometer. […] Antimicrobial susceptibility tests of the S. aureus strain ATCC 29213 was determined by the disc diffusion method according to the recommendations and guidelines of Clinical Laboratory Standard Institutes (CLSI M100-S24; 2014). […]
property.measured: Testing for zone of inhibition; Method of Inoculation: Apparatus, Single actuation

[[record]]
molecule = "C[C@H]1[C@H](NC(=O)/C(=N\\OC(C)(C)C(=O)O)c2csc(N)n2)C(=O)N1S(=O)(=O)O [ATM, Aztreonam]"
result = "NZI"

[[record]]
molecule = "C[C@@H](O)[C@H]1C(=O)N2C(C(=O)O)=C(SCCN=CN)C[C@H]12 [IPM, Imipenem]"
result = "38 mm"

[[record]]
molecule = "CO/N=C(\\C(=O)N[C@@H]1C(=O)N2C(C(=O)[O-])=C(C[N+]3(C)CCCC3)CS[C@H]12)c1csc(N)n1 [FEP, Cefepime]"
result = "NZI"

[[record]]
molecule = "NCC[C@H](O)C(=O)N[C@@H]1C[C@H](N)[C@@H](O[C@H]2O[C@H](CN)[C@@H](O)[C@H](O)[C@H]2O)[C@H](O)[C@H]1O[C@H]1O[C@H](CO)[C@@H](O)[C@H](N)[C@H]1O [AN, Amikacin]"
result = "26 mm"

[[record]]
molecule = "O=C(N[C@H](CO)[C@H](O)c1ccc([N+](=O)[O-])cc1)C(Cl)Cl [C, Chloramphenicol]"
result = "22 mm"

[[record]]
molecule = "CN(C)[C@@H]1C(O)=C(C(N)=O)C(=O)[C@@]2(O)C(O)=C3C(=O)c4c(O)cccc4[C@@](C)(O)[C@H]3C[C@@H]12 [TE, Tetracycline]"
result = "25 mm"

